Data credit: patent US12497460B2

Total Binding at 4° C. values for the molecules below.
system under test: T1, MSR1 on differentiated THP-1 cells (Homo sapiens, UniProt P21757)
T1 construct: endogenous in cells; host or cells: THP-1 cells differentiated with PMA
T1 sequence (P21757 1-451): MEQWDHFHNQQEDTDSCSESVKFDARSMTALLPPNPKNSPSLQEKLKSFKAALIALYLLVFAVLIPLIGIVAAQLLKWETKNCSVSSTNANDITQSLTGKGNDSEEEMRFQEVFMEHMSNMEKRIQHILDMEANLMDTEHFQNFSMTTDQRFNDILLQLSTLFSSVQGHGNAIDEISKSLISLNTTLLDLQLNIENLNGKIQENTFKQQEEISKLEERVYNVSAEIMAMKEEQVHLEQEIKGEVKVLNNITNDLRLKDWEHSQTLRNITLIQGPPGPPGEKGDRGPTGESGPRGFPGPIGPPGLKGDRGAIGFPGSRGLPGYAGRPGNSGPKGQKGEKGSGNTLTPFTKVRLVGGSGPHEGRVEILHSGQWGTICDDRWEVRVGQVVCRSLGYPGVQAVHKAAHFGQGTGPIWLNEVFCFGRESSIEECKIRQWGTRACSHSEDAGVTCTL
assay details: Binding and internalization of cell-surface expressed MSR1 in differentiated THP-1 cells
Format: cell-based
particulars: 10 μg/mL antibody, 4° C.
reported metric: Total Binding at 4° C.

* H1H27754P-N297Q: one of "Twelve anti-MSR1 antibodies"; "made with an N297Q single point mutation in human Fcγ portion" (antibody, V domains shown) VH: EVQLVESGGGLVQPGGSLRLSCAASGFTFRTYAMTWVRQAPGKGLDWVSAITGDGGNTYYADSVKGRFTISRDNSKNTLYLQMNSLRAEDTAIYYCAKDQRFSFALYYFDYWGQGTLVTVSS VL: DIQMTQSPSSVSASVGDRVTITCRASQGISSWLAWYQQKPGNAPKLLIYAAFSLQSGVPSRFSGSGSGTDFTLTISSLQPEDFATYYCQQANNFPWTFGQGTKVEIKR | 3077308
* H1H27731P-N297Q: one of "Twelve anti-MSR1 antibodies"; "made with an N297Q single point mutation in human Fcγ portion" (antibody, V domains shown) VH: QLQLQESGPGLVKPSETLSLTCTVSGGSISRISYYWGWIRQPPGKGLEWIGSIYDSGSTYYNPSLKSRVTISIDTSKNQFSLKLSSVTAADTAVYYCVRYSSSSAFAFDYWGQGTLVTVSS VL: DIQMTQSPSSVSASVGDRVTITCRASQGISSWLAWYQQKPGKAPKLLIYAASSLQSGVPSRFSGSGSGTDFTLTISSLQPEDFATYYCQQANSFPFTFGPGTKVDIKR | 1215319
* H1H27747P-N297Q (antibody, V domains shown) VH: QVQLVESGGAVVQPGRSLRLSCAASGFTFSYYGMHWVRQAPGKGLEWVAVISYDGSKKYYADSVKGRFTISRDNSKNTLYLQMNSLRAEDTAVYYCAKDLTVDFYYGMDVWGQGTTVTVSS VL: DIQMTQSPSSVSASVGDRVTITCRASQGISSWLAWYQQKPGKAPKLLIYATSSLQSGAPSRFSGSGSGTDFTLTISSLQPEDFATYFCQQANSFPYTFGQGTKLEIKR | 2518361
